# assay-notes: Symptomatology (rotorod, inclined plane)
# Format: in vivo, mice
# protocol-conditions: intraperitoneally; inability to remain on an inclined plane
observed-property: Symptomatology, Inclined Plane

[[record]]
compound = "COc1cc2c(cc1OC)N(C(=O)OCc1ccccc1)C(C)CC2=O (stereo not shown) [drawing 10]"
data_value = "100-316 mpk"

[[record]]
compound = "CCOC(=O)N1c2cc(OC)c(OC)cc2C(=O)CC1C (stereo not shown) [drawing 7]"
data_value = "32-100 mpk"

[[record]]
compound = "COC(=O)N1c2cc(OC)c(OC)cc2C(=O)CC1C (stereo not shown) [drawing 8]"
data_value = "100-316 mpk"

[[record]]
compound = "CCCCOC(=O)N1c2cc(OC)c(OC)cc2C(=O)CC1C (stereo not shown) [drawing 9]"
data_value = "100-316 mpk"


###

# assay-notes: LD50
# protocol-conditions: in vivo
This section presents molecules with their documented LD50 values.
observed-property: LD50

[[record]]
molecule = "COc1cc2c(cc1OC)N(C(=O)OCc1ccccc1)C(C)CC2=O (stereo not shown) [drawing 14]"
observed_property = "LD50"
data_value = "> 1000 mg/kg"

[[record]]
molecule = "CCOC(=O)N1c2cc(OC)c(OC)cc2C(=O)CC1C (stereo not shown) [drawing 11]"
observed_property = "LD50"
data_value = "> 1000 mg/kg"

[[record]]
molecule = "COC(=O)N1c2cc(OC)c(OC)cc2C(=O)CC1C (stereo not shown) [drawing 12]"
observed_property = "LD50"
data_value = "> 1000 mg/kg"

[[record]]
molecule = "CCCCOC(=O)N1c2cc(OC)c(OC)cc2C(=O)CC1C (stereo not shown) [drawing 13]"
observed_property = "LD50"
data_value = "316 to 1000 mg/kg"

